The origin of these recorded values is the supplement of paper PMC6897291.

System: RIVA
Assay: growth inhibition by drug alone (1 - RLU/untreated control) (fraction); higher = stronger inhibition
Settings: 10 nM; time (day): 4; 177Lu-lilotomab satetraxetan 0 ug/ml
Where a name gives a salt, the structure may show the parent alone.
Items are presented alongside their recorded growth inhibition by drug alone.

{"compound": "OCCn1cc(-c2cnc3nnn(Cc4ccc5ncccc5c4)c3n2)cn1", "assayResult": 0.00592}

// growth inhibition by drug alone lookup, key: `Cc1ccc(-c2csc3ncnc(SCCC(=O)O)c23)cc1`
-0.215

// growth inhibition by drug alone lookup, key: `CC[C@]1(O)C[C@@H]2CN(CCc3c([nH]c4ccccc34)[C@@](C(=O)OC)(c3cc4c(cc3OC)N(C)[C@H]3[C@@](O)(C(=O)OC)[C@H](OC(C)=O)[C@]5(CC)C=CCN6CC[C@]43[C@@H]65)C2)C1`
0.101

// growth inhibition by drug alone lookup, key: `CCC(=O)N1CCN(c2ccc(-n3c(=O)ccc4cnc5ccc(-c6cnc7ccccc7c6)cc5c43)cc2C(F)(F)F)CC1`
0.0386

// growth inhibition by drug alone lookup, key: `Cc1cccc(-c2[nH]c(C(C)(C)C)nc2-c2ccc3nccnc3c2)n1`
-0.00935

// growth inhibition by drug alone lookup, key: CCN[C@H]1C[C@H](C)S(=O)(=O)c2sc(S(N)(=O)=O)cc21 [Dorzolamide HCL]
-0.133

* * *

Tested on: U-2932
Test: growth inhibition by drug plus 177Lu-lilotomab satetraxetan (1 - RLU/untreated control) (fraction); higher = stronger inhibition
Details: 1000 nM; time (day): 3; 177Lu-lilotomab satetraxetan 1 ug/ml
Items are presented alongside their recorded growth inhibition by drug plus 177Lu-lilotomab satetraxetan.
Form field (numeric): enter value without unit.

Some compounds with known growth inhibition by drug plus 177Lu-lilotomab satetraxetan results, for comparison:
{"compound": "Cc1ccc([N+](=O)[O-])cc1S(=O)(=O)N(C)/N=C/c1cnc2ccc(Br)cn12", "assayResult": 0.969}
{"compound": "c1ccc(-c2nn3c(c2-c2ccnc4cc(OCCN5CCOCC5)ccc24)CCC3)nc1", "assayResult": -0.0195}

// growth inhibition by drug plus 177Lu-lilotomab satetraxetan lookup, key: `CC[C@H](Nc1ncnc2[nH]cnc12)c1nc2cccc(F)c2c(=O)n1-c1ccccc1`
0.507

// growth inhibition by drug plus 177Lu-lilotomab satetraxetan lookup, key: `CC(C)(C)c1cnc(CSc2cnc(NC(=O)C3CCNCC3)s2)o1`
0.955

// growth inhibition by drug plus 177Lu-lilotomab satetraxetan lookup, key: `CCN1CCN(Cc2ccc(-c3cc4c(N[C@H](C)c5ccccc5)ncnc4[nH]3)cc2)CC1`
-0.206

// growth inhibition by drug plus 177Lu-lilotomab satetraxetan lookup, key: CC(NC(=O)c1ccccc1/N=C/c1c(O)ccc2ccccc12)c1ccccc1 (stereo not drawn)
-0.00947

// growth inhibition by drug plus 177Lu-lilotomab satetraxetan lookup, key: `C=CC[C@@H]1/C=C(\C)C[C@H](C)C[C@H](OC)[C@H]2O[C@@](O)(C(=O)C(=O)N3CCCC[C@H]3C(=O)O[C@H](/C(C)=C/[C@@H]3CC[C@@H](O)[C@H](OC)C3)[C@H](C)[C@@H](O)CC1=O)[C@H](C)C[C@@H]2OC`
0.206

// growth inhibition by drug plus 177Lu-lilotomab satetraxetan lookup, key: `Cc1ccc(C(=O)N(CCCN)[C@@H](c2oc3cc(Cl)ccc3c(=O)c2Cc2ccccc2)C(C)C)cc1`
0.968
